Molecular target: Plasminogen (Homo sapiens)
Sequence (P00747 97-580 limits assumed): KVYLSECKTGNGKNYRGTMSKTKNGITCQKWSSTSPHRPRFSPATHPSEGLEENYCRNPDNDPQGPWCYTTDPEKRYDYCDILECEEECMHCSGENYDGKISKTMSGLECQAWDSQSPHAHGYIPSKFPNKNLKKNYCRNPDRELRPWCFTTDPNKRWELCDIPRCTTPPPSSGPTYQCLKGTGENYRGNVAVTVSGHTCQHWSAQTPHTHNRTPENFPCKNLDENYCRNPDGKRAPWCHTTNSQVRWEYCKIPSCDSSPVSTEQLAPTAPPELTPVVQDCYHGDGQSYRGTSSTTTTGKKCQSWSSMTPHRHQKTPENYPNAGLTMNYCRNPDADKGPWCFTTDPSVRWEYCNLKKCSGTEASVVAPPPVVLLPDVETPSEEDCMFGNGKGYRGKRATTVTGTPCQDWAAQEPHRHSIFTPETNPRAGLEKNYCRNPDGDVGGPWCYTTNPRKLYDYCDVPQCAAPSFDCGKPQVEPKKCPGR
Sequence (P00747 581-810 limits assumed): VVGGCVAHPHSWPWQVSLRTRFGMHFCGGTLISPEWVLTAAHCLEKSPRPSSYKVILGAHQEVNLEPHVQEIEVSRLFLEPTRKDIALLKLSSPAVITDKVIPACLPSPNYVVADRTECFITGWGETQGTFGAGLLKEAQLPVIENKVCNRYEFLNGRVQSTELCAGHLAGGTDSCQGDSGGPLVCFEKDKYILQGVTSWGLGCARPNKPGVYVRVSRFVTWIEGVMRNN
assay-readout: log10(IC50) (log10 of the value in µM)
Friendly reminder: values = log10 of IC50, unit µM.

Give the measured log10(IC50) for `CC(C)(C)OC(=O)N[C@@H](Cc1ccccc1)C(=O)N1CCCC[C@H]1C(=O)N[C@H](C=O)CCCNC(=N)N`
0.91

Give the measured log10(IC50) for `N=C(N)NCCC[C@@H](C=O)NC(=O)[C@@H]1CCCN1C(=O)[C@@H]1NCC[C@@H]2CCCC[C@@H]21`
-0.15

Give the measured log10(IC50) for CC(C)(C)OC(=O)NC(Cc1ccccc1)C(=O)N1C(C(=O)N[C@H](C=O)CCCN=C(N)N)CCC1(C)C (stereo in doubt)
1.04

Give the measured log10(IC50) for `CC[C@](NC(=O)C(F)(F)F)(C(=O)N1CC[C@H]1C(=O)N[C@H](C=O)CCCN=C(N)N)c1ccccc1`
0.63

Give the measured log10(IC50) for `CC(C)(C)OC(=O)N[C@@H](C(=O)N1CC[C@H]1C(=O)N[C@H](C=O)CCCN=C(N)N)c1ccccc1`
-0.82

----------
Square brackets hold non-standard residues; d marks the D form. Peptide text beside a SMILES is read from it. Tic = O=C(O)[C@@H]1Cc2ccccc2CN1
The following molecules each carry a recorded log10 IC50 for Coagulation factor X (Bos taurus, UniProt P00743).
Friendly reminder: values = log10 of IC50, unit µM.

Recorded log10 IC50, per entry:
| molecule | assay-readout | result |
| --- | --- | --- |
| CC(C)(C)OC(=O)NC(Cc1ccccc1)C(=O)N1C(C(=O)N[C@H](C=O)CCCN=C(N)N)CCC1(C)C (stereo in doubt) | log10 IC50 | 1.26 |
| N=C(N)NCCC[C@@H](C=O)NC(=O)[C@@H]1CCCN1C(=O)[C@@H]1NCC[C@@H]2CCCC[C@@H]21 | log10 IC50 | -0.26 |
| CC(C)(C)OC(=O)N[C@@H](C(=O)N1CC[C@H]1C(=O)N[C@H](C=O)CCCN=C(N)N)c1ccccc1 | log10 IC50 | -0.57 |

Quote Coagulation factor X (Bos taurus, UniProt P00743) log10 IC50 for entry N=C(N)NCCC[C@@H](C=O)NC(=O)[C@@H]1CCCN1C(=O)[C@@H]1Cc2ccccc2CN1 (H-[Tic]-Pro-Arg-aldehyde) .
-0.19

Quote Coagulation factor X (Bos taurus, UniProt P00743) log10 IC50 for entry `CC(C)(C)OC(=O)N[C@H](Cc1ccccc1)C(=O)N1CCC[C@H]1C(=O)N[C@H](C=O)CCCN=C(N)N` .
0.20

Quote Coagulation factor X (Bos taurus, UniProt P00743) log10 IC50 for entry `CN[C@H](Cc1ccccc1)C(=O)N1CCC[C@H]1C(=O)N[C@H](C=O)CCCN=C(N)N` .
0.88

----------
Biological target: UniProtKB P00735
Square brackets hold non-standard residues; d marks the D form. Peptide text beside a SMILES is read from it. * marks the point of attachment. Tic = O=C(O)[C@@H]1Cc2ccccc2CN1; dPhg = N[C@@H](C(=O)O)c1ccccc1; Boc = CC(C)(C)OC(=O)*
Below, each entry is listed alongside its reported IC50.
Value and unit, in that order.

| molecule | IC50 |
| --- | --- |
| N=C(N)NCCC[C@@H](C=O)NC(=O)[C@@H]1CCCN1C(=O)[C@@H]1NCC[C@@H]2CCCC[C@@H]21 | 19 nM |
| C[C@](NC(=O)C(F)(F)F)(C(=O)N1CCC[C@H]1C(=O)N[C@H](C=O)CCCN=C(N)N)c1ccccc1 | 64 nM |
| CC(C)(C)OC(=O)N[C@H](Cc1ccccc1)C(=O)N1CCC[C@H]1C(=O)N[C@H](C=O)CCCN=C(N)N | 45 nM |
| CC(C)(C)OC(=O)N[C@@H](Cc1ccccc1)C(=O)N1CCCC[C@H]1C(=O)N[C@H](C=O)CCCNC(=N)N | 1700 nM |

Quote UniProtKB P00735 IC50 for entry CC(C)(C)OC(=O)N[C@@H](C(=O)N1CCC[C@H]1C(=O)N[C@H](C=O)CCCN=C(N)N)c1ccccc1 (Boc-[dPhg]-Pro-Arg-aldehyde) .
16 nM

Quote UniProtKB P00735 IC50 for entry N=C(N)NCCC[C@@H](C=O)NC(=O)[C@@H]1CCCN1C(=O)[C@@H]1Cc2ccccc2CN1 (H-[Tic]-Pro-Arg-aldehyde) .
19 nM

Quote UniProtKB P00735 IC50 for entry CC(C)(C)OC(=O)NC(Cc1ccccc1)C(=O)N1CC[C@H]1C(=O)N[C@@H](CCCN=C(N)N)C(=O)O (stereo in doubt) .
18 nM

Quote UniProtKB P00735 IC50 for entry `N=C(N)NCCC[C@@H](C=O)NC(=O)[C@@H]1CCCN1C(=O)[C@@H]1C[C@@H]2CCCC[C@@H]2CN1` .
46 nM
